# Test system: SF-295
# experiment-summary: NCI tumour cell line growth inhibition, 48 h
Activity calls are given as the source filed them. Cut-off read from the data, not from the text of the source: active = GI50 up to about 1.1 µM and inactive = higher.
Outcome codes: class 1 (active), class 0 (inactive)

compound	category-label
COc1cc2c(cc1OC)[C@@H](Nc1ccc(C#N)cc1)C1COC(=O)[C@@H]1C2c1cc(OC)c(O)c(OC)c1 (stereo not given in full)	class 1
CS(C)(=O)=N/C=C\C(=O)C(Cl)(Cl)Cl	class 0
c1ccc(CCN(Cc2nc3ccccc3[nH]2)Cc2nc3ccccc3[nH]2)cc1	class 0
NC(=S)N/N=C/c1c[nH]c2ccccc12	class 0
C[C@H]1CCC2C(CN3CCCCC3)C(=O)OC2[C@]2(C)C(=O)CC(N3CCCCC3)C12O (stereo not given in full)	class 0
CCOC(=O)CC1=N/C(=N/c2cc(Cl)ccc2Cl)SC1	class 0
Cc1[nH]n(C(=N)N)c(=O)c1CCO	class 0
C1CCC(OCc2nnn3c2CCC3)OC1 (stereo not given)	class 0
BrCC[N+]12CCCN1CCC2	class 0
Nc1ncc(Cc2nc3ccccc3s2)s1	class 0
CN(C)Cc1cc(C(=O)/C=C/c2cccc(Cl)c2)cc(CN(C)C)c1O	class 0
CN1CCc2c(sc3ncn(N)c(=N)c23)C1	class 0
CC(=O)N1OC(C)CC1Nc1ccc(Br)cc1 (stereo not given)	class 0
CC(C)(CN1CCCCC1)C(/C=C/c1ccc(Cl)c(Cl)c1)=N\NC(=O)N/N=C(/C=C/c1ccc(Cl)c(Cl)c1)C(C)(C)CN1CCCCC1	class 0
CCC(Cc1cnc2nc(N)nc(N)c2n1)c1ccc(C(=O)NC(CCC(=O)O)C(=O)O)cc1 (stereo not given)	class 1

----------
# Tested on: U-251
# experiment-summary: NCI tumour cell line growth inhibition, 48 h
Calls of active or inactive are those of the source. Cut-off read from the data, not from the text of the source: active = GI50 up to about 1.1 µM and inactive = higher.
Outcome codes: y for active, n for inactive

compound	category-label
S=C(NCCc1ccccn1)N/N=C(\c1ccccc1)c1ccccn1	y
Oc1c(CN2CCOCC2)ccc2cccnc12	n
CC(=O)Oc1cccc2c(/C=N/NC(N)=S)ncc(C)c12	y
C=C1C(C(=O)OC)[C@H]1C(=O)OC (some centres not stated)	n
C=C1C[C@]23CCC4C(C)(C)C(=O)CC[C@]4(C)C2C[C@H]1C(O)C3=O (some centres not stated)	n
CN(C)C=C1C(=O)c2c(Br)sc(Br)c2C1=O	n
COC(=O)c1ccc(/C=C(\c2ccc([N+](=O)[O-])o2)S(=O)(=O)c2ccc(NC(C)=O)cc2)o1	n
O=C(/C(=C/c1ccc(O)cc1)c1ccccc1)c1ccccc1	n
Oc1nc(S)nc2c1CCCN2	n
CCOC(=O)/C(=N/Nc1ccccc1)N1C(=S)N(C)N=C(C)C=C1S	n
CN(C)CCN(C)c1ccc2c(=O)n(CCN(C)C)c(=O)n3c4ccccc4c(=O)c1c23	y
CC(=O)OC1[C@H]2c3cc4c(cc3CN3CCC(=C[C@@H]1O)C23)OCO4 (some centres not stated)	n

----------
# System: SK-MEL-5
# experiment-summary: NCI tumour cell line growth inhibition, 48 h
The source made the active and inactive calls. Cut-off read from the data, not from the text of the source: active = GI50 up to about 1.1 µM and inactive = higher. Where a SMILES comes first, the peptide text is derived from it. The star is where a group is joined. Cbz = O=C(OCc1ccccc1)*; Bn = c1ccc(C*)cc1
Listed compounds paired with reported GI50

compound	GI50
C1CCC(OCc2nnn3c2CCC3)OC1 (stereo not drawn)	> 100 µM (inactive)
CC(=O)Nc1ccc(C(O)/C(=N/N)c2nc3ccc(Cl)cc3nc2O)cc1 (stereo not drawn)	> 100 µM (inactive)
COc1cc(OC)c2c(c1)OC(c1ccccc1)CC2=O (stereo not drawn) [DIMETHYLPINOCEMBRIN]	> 10 µM (inactive)
COc1cc2cc(c1Cl)N(C)C(=O)C[C@H](OC(=O)[C@H](C)N(C)C(C)=O)[C@]1(C)O[C@H]1[C@H](C)[C@@H]1C[C@@](O)(NC(=O)O1)[C@H](OC)/C=C/C=C(/C)C2	0.0135 µM (active)
COc1ccc(C2=Nc3ccccc3NC(=O)C2)cc1	> 100 µM (inactive)
COC(=O)C(Cc1ccc(O)cc1)NC(=O)C(COCc1ccccc1)NC(=O)OCc1ccccc1 (stereo not drawn) (Cbz-Ser(Bn)-Tyr-OMe; configuration not given here)	17 µM (inactive)
NNC(=S)N/N=C(/C(=O)Nc1cc(Cl)ccc1Cl)C1C(=O)Nc2ccccc2[S+]1[O-] (stereo not drawn)	> 100 µM (inactive)
O=C(Cc1ccccc1)NN1C(=O)/C(=C\c2ccc(O)cc2)S/C1=N\c1ccccc1	> 100 µM (inactive)
O=C(O)CCNc1ncc2c(n1)-c1ccccc1OC2	> 100 µM (inactive)
C=C1CC(c2ccc(O)c(OC)c2)Oc2c(OC)cccc21 (stereo not drawn)	35.7 µM (inactive)
CC(C)(C)OC1=C(OC(C)(C)C)C(O)(c2ccc(Cl)cc2)C1=O (stereo not drawn)	> 100 µM (inactive)
Nc1ncc(Cc2nc3ccccc3s2)s1	28.6 µM (inactive)
COc1cc(/C=N/c2nc3cc4sc(/N=C/c5cc(OC)c(OC)c(OC)c5)nc4cc3s2)cc(OC)c1OC	37.1 µM (inactive)
C[N+](C)(C)CC(=O)N/N=C\c1c(O)ccc2ccccc12	16.2 µM (inactive)
CN1CCc2c(sc3ncn(N)c(=N)c23)C1	> 100 µM (inactive)
O=C1CC2C(=O)N(Cc3ccccc3)C1C=C2S(=O)(=O)c1ccccc1 (stereo not drawn)	> 100 µM (inactive)
Cc1cc(S(=O)(=O)Nc2nc(N)n[nH]2)c(Cl)cc1Cl	> 10 µM (inactive)
COc1ccc(/C=N/n2cnc3[nH]c(C)c(Cc4ccccc4)c3c2=N)cc1	> 100 µM (inactive)

----------
# System: SR
# experiment-summary: NCI tumour cell line growth inhibition, 48 h
Active and inactive are the calls of the source. Cut-off read from the data, not from the text of the source: active = GI50 up to about 1.1 µM and inactive = higher. Where a SMILES comes first, the peptide text is derived from it. Square brackets hold non-standard residues; d marks the D form. Peptide text beside a SMILES is read from it. The star is where a group is joined. pGlu = O=C1CC[CH](C(=O)O)N1; Cbz = O=C(OCc1ccccc1)*; Bn = c1ccc(C*)cc1
Outcome codes: Yes = active, No = inactive

compound	category-label
Cc1cc(C)c(N[S+]([O-])c2cccc(Cl)c2)c(C)c1 (centres undefined)	No
Cc1ccc(NCC2CC/C(=C\c3ccc(Cl)cc3)C2=O)cc1 (centres undefined)	No
C/C(CN1C(=O)c2ccccc2C1=O)=N\NS(=O)(=O)c1ccc(F)cc1	No
CC(NC(=O)C(Cc1c[nH]cn1)NC(=O)C1CCC(=O)N1)C(N)=O (stereo not drawn) ([pGlu]-His-Ala-NH2; configuration not given here)	No
COC(=O)C(Cc1ccc(O)cc1)NC(=O)C(COCc1ccccc1)NC(=O)OCc1ccccc1 (centres undefined) (Cbz-Ser(Bn)-Tyr-OMe; configuration not given here)	No
CCC(C)C(NC(=O)C(CCCCN)NC(=O)C(NC(=O)C(CCC(N)=O)NC(=O)C(CCCNC(=N)N)NC(C)=O)C(C)CC)C(=O)NC(Cc1c[nH]c2ccccc12)C(=O)NC(Cc1ccccc1)C(=O)NC(CCC(N)=O)C(=O)NC(CC(N)=O)C(=O)NC(CCCNC(=N)N)C(=O)NC(CCCNC(=N)N)C(=O)NC(CCSC)C(=O)NC(CCCCN)C(=O)NC(Cc1c[nH]c2ccccc12)C(=O)NC(CCCCN)C(=O)NC(CCCCN)C(N)=O (centres undefined)	No
C1CCC(OCc2nnn3c2CCC3)OC1 (centres undefined)	No
COc1ccccc1NC(=S)N/N=C/c1ccccn1	Yes
CC(=O)OC1CC2c3cccc4c3C(CC2N(C)C1=O)CN4C(=O)c1ccccc1 (centres undefined)	No
COc1ccc(Nc2nc3ccccc3nc2-c2cccs2)cc1	No
CN(C)c1c([O-])c(=[N+](C)C)c1=O	No
O=C1C2=Cc3ccccc3OC2(O)Oc2ccccc21 (centres undefined)	No
CCOC(=O)c1c(C)n(Cc2ccc(Cl)cc2Cl)c2c1cc(O)c1[nH]c3c(c12)CCCC3	Yes
COc1ccc(-c2nnc(-c3c(C)n(C)n(-c4ccccc4)c3=O)o2)cc1	No
CC(C)(C)C1(O)Cc2ccccc2C(=O)O1 (centres undefined)	No
Cc1cc2cc(Cl)ccc2nc1C(=O)c1ccccc1	No
NC(=S)N/N=C/c1c[nH]c2ccccc12	No
C[C@H](CCC1=NCCN1)[C@H]1CC[C@H]2[C@@H]3CC[C@@H]4C[C@H](O)CC[C@]4(C)[C@H]3CC[C@]12C	No
CC(C)OP(=O)(OC(C)C)c1ccc2c(c1)OCCOCCOCCOCCO2	No
C=C(C)C12CC(COC(=O)c3ccccc3)C34OC5(OC1C3C1OC1(CO)C(O)C1(O)C(OC(=O)c3ccccc3)C(C)C(C(C)CCCCCCC5O)C14)O2 (centres undefined)	No
COc1ccc(OCc2ccc3nc(-c4ccccc4)c(Cl)nc3c2)cc1	No
CCN(CC)CCc1c2c(nc3ccccc13)C(=O)c1cccnc1C2=O	Yes
Cc1ccc(NC(=O)C(=O)C2C(=O)NC(=O)NC2=O)cc1C	No
Cc1[nH]n(C(=N)N)c(=O)c1CCO	No
